System: HIV-1T91A
ASSAY SUMMARY: p24 assay in MT-4 cells, recombinant clone
Format: cell-based
CONDITION SUMMARY: Human immunodeficiency virus 1, MT4
QUANTITY MEASURED: pEC50
Answers are plain numbers, as −log10 of the molar value.

Could you share what pEC50 was measured for COc1ccc(S(=O)(=O)N(CC(C)C)CC(O)C(Cc2ccccc2)NC(=O)OC2C3COC4OCC2C4C3)cc1 (stereo not shown) , tested on HIV-1T91A?
8.48

###

Tested on: HIV-1_9510 ^R 36P
ASSAY SUMMARY: p24 production inhibition in MT-4 cells
Assay type: cell-based
CONDITION SUMMARY: Human immunodeficiency virus 1, MT4; MT-4 cells, p24 assay; read-out: EC50 HIV-1_9510 ^R 36P
QUANTITY MEASURED: pEC50
One number for each entry, as −log10 of the molar value.

Quick check: pEC50 of COc1ccc(S(=O)(=O)N(CC(C)C)CC(O)C(Cc2ccccc2)NC(=O)OC2C3COC4OCC2C4C3)cc1 (stereo not shown) [GRL-09510] ?
7.62

###

ASSAY SUMMARY: Cytotoxicity against MT-2 cells (MTT assay)
Type: cell-based
CONDITION SUMMARY: human
QUANTITY MEASURED: CC50 (µM)
Numbers only, in µM.

- COMPOUND: "CC(C)CN(C[C@@H](O)[C@H](Cc1ccccc1)NC(=O)O[C@H]1CCOC1)S(=O)(=O)c1ccc(N)cc1"
  CC50 (µM): 48.2
- COMPOUND: "COC(=O)N[C@H](C(=O)N[C@@H](Cc1ccccc1)[C@@H](O)CN(Cc1ccc(-c2ccccn2)cc1)NC(=O)[C@@H](NC(=O)OC)C(C)(C)C)C(C)(C)C"
  CC50 (µM): 32.4
- COMPOUND: "Cc1cccc(C)c1OCC(=O)N[C@@H](Cc1ccccc1)[C@@H](O)C[C@H](Cc1ccccc1)NC(=O)[C@H](C(C)C)N1CCCNC1=O"
  CC50 (µM): 26.7

Here's the next entry for you.
Quick check: CC50 of COc1ccc(S(=O)(=O)N(CC(C)C)CC(O)C(Cc2ccccc2)NC(=O)OC2C3COC4OCC2C4C3)cc1 (stereo not shown) ?
39

###

Tested on: laboratory and primary clinical HIV-1 isolates
ASSAY SUMMARY: Antiviral activity, summary over strains
Type: cell-based
CONDITION SUMMARY: Human immunodeficiency virus 1; range over isolates; read-out: EC50 against laboratory and primary clinical HIV-1 isolates
QUANTITY MEASURED: EC50

Quick check: EC50 of COc1ccc(S(=O)(=O)N(CC(C)C)CC(O)C(Cc2ccccc2)NC(=O)OC2C3COC4OCC2C4C3)cc1 (stereo not shown) ?
1.4 to 2.8 nM

Value source: paper PMC5613016
